Target: T1, human PCSK9 (human, UniProt Q8NBP7 31-692)
T1 construct: also called hPCSK9; huPCSK9
Assay: PCSK9:EGFA FRET 2, competition
Measurement label: pIC50
Remember, pIC50 is on a log scale: it is -log10 of the molar concentration.

Value of pIC50 reported for the binder PCSK9-PKE2 tandem 4472_E09 (designed binder, In the real molecule the two parts given here are one polypeptide, joined by the undisclosed linker A. They are written as two chains only because the linker has no letters., not shown: Linker 'A' joining ...NYRTE of the PCSK9 domain to GVSDV... of the PKE2 domain) PCSK9 domain: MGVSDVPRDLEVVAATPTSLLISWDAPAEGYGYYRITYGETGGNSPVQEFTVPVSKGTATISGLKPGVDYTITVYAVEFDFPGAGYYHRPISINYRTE PKE2 domain: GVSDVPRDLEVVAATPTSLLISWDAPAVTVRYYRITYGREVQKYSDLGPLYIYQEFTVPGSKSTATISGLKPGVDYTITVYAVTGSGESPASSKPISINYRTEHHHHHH is 8.32

Value of pIC50 reported for the binder PCSK9-PKE2 tandem 4472_E06 (designed binder, The real molecule is ONE polypeptide: PCSK9 domain, undisclosed linker I (a code letter), PKE2 domain. It is given here as two chains because the linker letters are unknown., also called 4427_E06; not shown: The inter-domain linker) PCSK9 domain: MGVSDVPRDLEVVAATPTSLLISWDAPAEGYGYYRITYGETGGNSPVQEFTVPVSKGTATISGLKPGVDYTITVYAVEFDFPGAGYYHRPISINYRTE PKE2 domain: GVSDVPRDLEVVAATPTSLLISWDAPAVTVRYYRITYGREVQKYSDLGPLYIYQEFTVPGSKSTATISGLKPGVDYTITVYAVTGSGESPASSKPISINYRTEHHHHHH is 8.25

Value of pIC50 reported for the binder PCSK9-PKE2 tandem 4472_H11 (designed binder, not shown: small tags and cut ends, The two parts are one polypeptide in the real molecule, joined by the undisclosed linker P (a code, not a proline); they are given here as separate chains.) PCSK9 10Fn3: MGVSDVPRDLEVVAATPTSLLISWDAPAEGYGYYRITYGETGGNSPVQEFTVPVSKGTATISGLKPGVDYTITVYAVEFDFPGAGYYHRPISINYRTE PKE2 10Fn3: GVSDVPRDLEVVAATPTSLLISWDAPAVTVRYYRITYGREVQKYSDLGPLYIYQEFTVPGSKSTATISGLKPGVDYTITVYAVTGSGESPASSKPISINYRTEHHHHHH is 8.20

Value of pIC50 reported for the binder PCSK9-PKE2 tandem 4472_F08 (designed binder, The real molecule is ONE polypeptide: PCSK9 domain, undisclosed linker F, PKE2 domain. It is given here as two chains because the linker letters are unknown., not shown: The inter-domain linker) PCSK9 domain: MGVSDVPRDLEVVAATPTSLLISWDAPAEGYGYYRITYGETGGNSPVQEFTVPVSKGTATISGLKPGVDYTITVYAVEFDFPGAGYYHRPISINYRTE PKE2 domain: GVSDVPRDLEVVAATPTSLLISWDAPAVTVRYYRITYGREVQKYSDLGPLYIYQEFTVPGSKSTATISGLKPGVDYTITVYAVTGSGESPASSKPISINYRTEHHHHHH is 8.23

Value of pIC50 reported for the binder PCSK9-PKE2 tandem 4472_F04 (designed binder, The real molecule is ONE polypeptide: PCSK9 domain, undisclosed linker D, PKE2 domain. It is given here as two chains because the linker letters are unknown., not shown: The inter-domain linker) PCSK9 domain: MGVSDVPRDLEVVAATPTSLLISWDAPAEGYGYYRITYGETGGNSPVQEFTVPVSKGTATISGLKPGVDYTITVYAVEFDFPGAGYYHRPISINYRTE PKE2 domain: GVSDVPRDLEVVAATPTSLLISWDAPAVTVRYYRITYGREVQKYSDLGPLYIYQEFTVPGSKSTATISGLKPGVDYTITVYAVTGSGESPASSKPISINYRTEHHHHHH is 8.38

Would you kindly look at the next entry?
Value of pIC50 reported for the binder PCSK9-PKE2 tandem 4472_B11 (designed binder, not shown: small tags and cut ends, The two parts are one polypeptide in the real molecule, joined by the undisclosed linker L; they are given here as separate chains.) PCSK9 10Fn3: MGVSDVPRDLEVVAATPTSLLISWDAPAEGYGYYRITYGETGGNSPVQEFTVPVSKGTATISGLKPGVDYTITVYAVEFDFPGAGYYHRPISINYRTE PKE2 10Fn3: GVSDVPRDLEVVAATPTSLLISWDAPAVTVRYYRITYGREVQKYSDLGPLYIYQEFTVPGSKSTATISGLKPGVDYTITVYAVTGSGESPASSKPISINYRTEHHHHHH is 8.30
